pIC50: −log10 of the molar value.
Literature roundup of RORc (Homo sapiens, UniProt P51449) data, read-out pIC50.
observable: pIC50

A selection of reference data follows.
1. CC[C@@H](O)c1n[nH]c(-c2cccc([C@@]34CC[C@@H](c5cc(-c6c(F)cccc6F)nnc53)C4(C)C)n2)n1 :: 7.97
2. C[C@@H](O)c1nnc(-c2cccc([C@@]34CC[C@@H](c5cc(-c6c(F)cccc6F)nnc53)C4(C)C)n2)[nH]1 :: 7.63
3. CC1(C)[C@H]2CC[C@]1(c1ccnc(C(N)=O)n1)c1nnc(-c3c(F)cccc3F)cc12 :: 7.56
4. CC(NCc1cnoc1)c1cc(F)c(CN2[C@@H](C)CC[C@H](c3ccccc3)S2(=O)=O)cc1F (some centres unmarked) :: 7.66
5. CC1(C)[C@@H]2CC[C@@]1(C(=O)N1C[C@@H]3C[C@H]1CN3S(C)(=O)=O)c1nnc(-c3c(F)cccc3F)cc12 :: 6.49
6. CNS(=O)(=O)c1nccc([C@@]23CC[C@@H](c4cc(-c5c(F)cccc5F)nnc42)C3(C)C)n1 :: 7.81

[A] CC(C)CN(Cc1ccc(-c2cccc(S(C)(=O)=O)c2)s1)S(=O)(=O)c1ccccc1
[B] CC(C)(O)c1ncn(-c2nccc([C@@]34CC[C@@H](c5cc(-c6c(F)cccc6F)nnc53)C4(C)C)n2)n1
-- ask // pick min by pIC50: A , B Kindly state the label of the option you pick.
-- reply A

====

pIC50: −log10 of the molar value.
Literature roundup of RORc (Homo sapiens, UniProt P51449) data, read-out pIC50.
observable: pIC50

A selection of reference data follows.
1) COCCn1nccc1[C@@]12CC[C@@H](c3cc(-c4c(F)cccc4F)nnc31)C2(C)C :: 6.47
2) CC[C@@H](O[C@@]12CC[C@@H](c3cc(-c4c(F)cccc4F)nnc31)C2(C)C)c1nc(COC)no1 :: 8.40

[A] C[C@H](O)CNC(=O)C1(c2ccc(CN3[C@@H](C)CC[C@H](c4ccccc4)S3(=O)=O)c(F)c2)CCOCC1
[B] CC1(C)[C@H]2CC[C@]1(c1nc(C#N)ccc1Br)c1nnc(-c3c(F)cccc3F)cc12
[C] CC(=O)N1CCN(c2ccc(CN3[C@@H](C)CCC(c4cccs4)S3(=O)=O)c(F)c2)CC1 (single isomer, unassigned)
[D] C[C@H]1CC[C@H](c2ccccc2)S(=O)(=O)N1Cc1ccc(C2(NCC(=O)O)CCOCC2)cc1F
-- ask With regard to pIC50, arrange the entries in ascending order, please. Field: ranking. Enter the labels in the order requested.
-- reply D, A, C, B

[1] CC1(C)[C@H]2CC[C@]1(c1ccnc(-n3cnc(=O)[nH]3)n1)c1nnc(-c3c(F)cccc3F)cc12
[2] CCN(C[C@@]12CC[C@@H](c3cc(-c4c(F)cccc4F)nnc31)C2(C)C)C(=O)c1cc(C)on1
[3] CC1(C)[C@@H]2CC[C@@]1(CN1CCNC1=O)c1nnc(-c3ccccc3F)cc12
[4] CC1(C)[C@H]2CC[C@]1(c1cc(-c3c[nH]c(=O)[nH]3)ccn1)c1nnc(-c3c(F)cccc3F)cc12
-- ask With regard to pIC50, arrange the entries in ascending order, please. Field: ranking. Enter the labels in the order requested.
-- reply 3, 4, 1, 2
(3: 6.61, 4: 6.92, 1: 7.76, 2: 8.22)
